Tested on: Kuramochi
Assay: drug sensitivity score (DSS) from 5-point dose-response viability curve (DSS (area-under-curve based score)); higher = more sensitive (stronger growth inhibition or killing); extreme values may be limits of the assay
Details: exposure time: 72 h; concentration range: 5 concentrations over 10,000-fold range
Given measured drug sensitivity score, output TRUE if it is greater than or equal to 4 and FALSE if not.

Solved entries (count: 8):
>>> label_class("COc1cc2c(cc1OCCCN1CCCC1)N=C(N)C21CCC1")
"FALSE"
>>> label_class("CC(=O)O[C@@]12CO[C@@H]1C[C@H](O)[C@@]1(C)C(=O)[C@H](O)C3=C(C)[C@@H](OC(=O)[C@H](O)[C@@H](NC(=O)OC(C)(C)C)c4ccccc4)C[C@@](O)([C@@H](OC(=O)c4ccccc4)[C@H]21)C3(C)C")
"TRUE"
>>> label_class("CN(c1ncccc1CNc1nc(Nc2ccc3c(c2)CC(=O)N3)ncc1C(F)(F)F)S(C)(=O)=O")
"TRUE"
>>> label_class("Cc1cc(Nc2cc(N3CCN(C)CC3)nc(Sc3ccc(NC(=O)C4CC4)cc3)n2)n[nH]1")
"FALSE"
>>> label_class("CN(C)C[C@@H]1CCn2cc(c3ccccc32)C2=C(C(=O)NC2=O)c2cn(c3ccccc23)CCO1")
"TRUE"
>>> label_class("CC(C)NC[C@@H](C(=O)N1CCN(c2ncnc3c2[C@H](C)C[C@H]3O)CC1)c1ccc(Cl)cc1")
"FALSE"
>>> label_class("COc1cc(Nc2ncc3c(n2)-c2ccc(Cl)cc2C(c2c(F)cccc2OC)=NC3)ccc1C(=O)O")
"FALSE"
>>> label_class("C[C@@H](Oc1cc(-c2cnn(C3CCNCC3)c2)cnc1N)c1c(Cl)ccc(F)c1Cl")
"FALSE"

Is the recorded value of drug sensitivity score equal to or greater than 4 for this compound? CO[C@H]1C[C@@H]2CC[C@@H](C)[C@@](O)(O2)C(=O)C(=O)N2CCCC[C@H]2C(=O)O[C@H]([C@H](C)C[C@@H]2CC[C@@H](OCCO)[C@H](OC)C2)CC(=O)[C@H](C)/C=C(\C)[C@@H](O)[C@@H](OC)C(=O)[C@H](C)C[C@H](C)/C=C/C=C/C=C/1C
TRUE

Is the recorded value of drug sensitivity score equal to or greater than 4 for this compound? O=C(Nc1cc(Cl)cc2c1[nH]c1cnccc12)c1cccnc1
FALSE

Is the recorded value of drug sensitivity score equal to or greater than 4 for this compound? Nc1ccn([C@@H]2O[C@H](CO)[C@@H](O)C2(F)F)c(=O)n1
FALSE

Is the recorded value of drug sensitivity score equal to or greater than 4 for this compound? C/C=C1\NC(=O)[C@H]2CSSCC/C=C/[C@H](CC(=O)N[C@H](C(C)C)C(=O)N2)OC(=O)[C@H](C(C)C)NC1=O
TRUE

Is the recorded value of drug sensitivity score equal to or greater than 4 for this compound? c1cc(CN2CCCNCCNCCCNCC2)ccc1CN1CCCNCCNCCCNCC1
FALSE

Is the recorded value of drug sensitivity score equal to or greater than 4 for this compound? Nc1ncnc2c1c(COc1cccc(Cl)c1)nn2C1CCOCC1
FALSE

###

Could you please report measured drug sensitivity score for the items listed next?
Tested on: COV362
Test: drug sensitivity score (DSS) from 5-point dose-response viability curve (DSS (area-under-curve based score)); higher = more sensitive (stronger growth inhibition or killing); extreme values may be limits of the assay
Details: exposure time: 72 h; concentration range: 5 concentrations over 10,000-fold range
One number for each entry.

Consider the following illustrative entries.
>>> observed_measurement("CS(=O)(=O)c1ccc(-c2cnc(N)c(C(=O)Nc3ccccc3)n2)cc1")
0
>>> observed_measurement("O=C(CCCCCCC(=O)Nc1ccccc1)NO")
3.2

Answer for every listed entry: what is its drug sensitivity score? The entries follow.
1. Cc1cccc(-c2[nH]c(CNc3ccccc3F)nc2-c2ccc3ncnn3c2)n1
2. CN(C)CCOc1ccc(/C(=C(/CCCl)c2ccccc2)c2ccccc2)cc1
3. O=C(O)c1ccc(-c2c[nH]c3ncc(-c4ccccc4)cc23)cc1C1CCCC1
4. CO[C@@]12[C@H](COC(N)=O)C3=C(C(=O)C(C)=C(N)C3=O)N1C[C@@H]1N[C@@H]12
5. CC/C(=C(\c1ccc(O)cc1)c1ccc(OCCN(C)C)cc1)c1ccccc1 [4-hydroxytamoxifen]
6. Clc1ccc(C(c2ccccc2Cl)C(Cl)Cl)cc1 (configuration not stated)
7. Cc1cnc(Nc2ccc(OCCN3CCCC3)cc2)nc1Nc1cccc(S(=O)(=O)NC(C)(C)C)c1
8. CN1CCC(COc2cnc(-c3cccc(Cn4nc(-c5cccc(C#N)c5)ccc4=O)c3)nc2)CC1

1: 5; 2: 0.6; 3: 0.1; 4: 0; 5: 2; 6: 0; 7: 6.1; 8: 0

Answer for every listed entry: what is its drug sensitivity score? The entries follow.
1. Nc1ncnc2c1nc(Cl)n2[C@@H]1O[C@H](CO)[C@@H](O)[C@H]1O
2. CNC(=O)c1cc(Oc2ccc(NC(=O)Nc3ccc(Cl)c(C(F)(F)F)c3)cc2)ccn1
3. N#Cc1ccnc(N2C(=O)CC[C@H]2C(=O)N(c2cncc(F)c2)[C@H](C(=O)NC2CC(F)(F)C2)c2ccccc2Cl)c1
4. O=C(O)CNC(=O)c1c(O)c2ccccc2n(Cc2ccccc2)c1=O
5. CCCc1cc(C)[nH]c(=O)c1CNC(=O)c1cc(-c2ccnc(N3CCN(C)CC3)c2)cc2c1cnn2C(C)C
6. O=C1Cc2cc(C(=O)NC3C[C@H]4CC[C@@H](C3)N4S(=O)(=O)CC3CCN(CCCC(F)(F)F)CC3)c(Cl)cc2N1 (some centres not stated)
7. Cc1ccc(NS(=O)(=O)c2cccc(C#N)c2)c2[nH]cc(C#N)c12

[7.6, 0, 0, 0, 0, 0, 0]

###

Test system: OV90
Assay: drug sensitivity score (DSS) from 5-point dose-response viability curve (DSS (area-under-curve based score)); higher = more sensitive (stronger growth inhibition or killing); extreme values may be limits of the assay
Settings: exposure time: 72 h; concentration range: 5 concentrations over 10,000-fold range
TEST_READOUT: drug sensitivity score

Answer for every listed entry: what is its drug sensitivity score? The entries follow.
1. COc1cc2nccc(Oc3ccc(NC(=O)Nc4cc(C)on4)c(Cl)c3)c2cc1OC
2. CCOc1ccccc1-n1c(C(C)N2CCN(C(=O)COc3ccc(Cl)cc3)CC2)nc2ccccc2c1=O (stereo not drawn)
3. CCn1c(-c2nonc2N)nc2c(C#CC(C)(C)O)ncc(OC[C@H]3CCCNC3)c21
4. N#CC1(c2ccc(NC(=O)c3cccnc3NCc3ccncc3)cc2)CCCC1

5.6
1.4
0.6
0

Answer for every listed entry: what is its drug sensitivity score? The entries follow.
1. O=C(NOCCO)c1ccc2cncn2c1Nc1ccc(I)cc1F
2. Cc1cc([C@@H](C)Nc2ccccc2C(=O)O)c2nc(N3CCOCC3)cc(=O)n2c1
3. CCN(CC)CCNC(=O)c1c(C)[nH]c(/C=C2\C(=O)Nc3ccc(F)cc32)c1C
4. Cn1cncc1[C@@](N)(c1ccc(Cl)cc1)c1ccc2c(c1)c(-c1cccc(Cl)c1)cc(=O)n2C

1: 16.3; 2: 0; 3: 0; 4: 4.7

###

System: OVCAR8
Experiment: drug sensitivity score (DSS) from 5-point dose-response viability curve (DSS (area-under-curve based score)); higher = more sensitive (stronger growth inhibition or killing); extreme values may be limits of the assay
Settings: exposure time: 72 h; concentration range: 5 concentrations over 10,000-fold range
Given measured drug sensitivity score, output fulfilled if it is greater than or equal to 10 and not fulfilled if not.

Solved entries (count: 5):
>>> label_class("CC1(C)NC(=O)N(c2ccc([N+](=O)[O-])c(C(F)(F)F)c2)C1=O [Nilutamide]")
"not fulfilled"
>>> label_class("N#Cc1ccc(COC[C@H]2O[C@@H](n3c(NCc4ccc(Cl)c(Cl)c4)nc4c(N)ncnc43)[C@H](O)[C@@H]2O)cc1")
"not fulfilled"
>>> label_class("COc1ccc(C[C@H](NC(=O)[C@H](C)NC(=O)CN2CCOCC2)C(=O)N[C@@H](Cc2ccccc2)C(=O)C2(C)CO2)cc1 (stereo in doubt)")
"fulfilled"
>>> label_class("C[C@H]1C[C@@H](n2c(Nc3ccc(OC(F)(F)F)cc3)nc3cc(CCC(=O)O)ccc32)CC(C)(C)C1")
"not fulfilled"
>>> label_class("Nc1nc2[nH]cnc2c(=S)[nH]1")
"fulfilled"

Is the recorded value of drug sensitivity score equal to or greater than 10 for this molecule? COc1cc2nccc(Oc3ccc(NC(=O)Nc4cc(C)on4)c(Cl)c3)c2cc1OC
not fulfilled

Is the recorded value of drug sensitivity score equal to or greater than 10 for this molecule? CCNCCS(=O)(=O)NC[C@@]1(c2ccccc2)SC(NC(=O)C(C)(C)C)=NN1C(=O)C(C)(C)C
fulfilled

Is the recorded value of drug sensitivity score equal to or greater than 10 for this molecule? CC(C)Nc1cc(-c2c[nH]c(C(=O)N[C@H](CO)c3cccc(Cl)c3)c2)c(Cl)cn1
not fulfilled
